Experiment: Kinetic solubility of the compound at pH 4.5 at 200 uM incubated for 2 hrs under shaking condition by HPLC analysis
Type: physicochemical
Conditions: buffer, read-out: Kinetic_solubility
PROPERTY_MEASURED: log10 of solubility kinetic at 2 h, 200 µM (log10 of the value in µM)

>  <COMPOUND_STRUCTURE>
CCc1nc(N)nc(N)c1Cc1ccc(-c2cccc(C(=O)O)c2)cc1.Cl

>  <RESULT>
1.06

$$$$
>  <COMPOUND_STRUCTURE>
CCc1nc(N)nc(N)c1Cc1ccc(-c2cccc(C(=O)OC)c2)cc1.Cl

>  <RESULT>
2.26

$$$$
>  <COMPOUND_STRUCTURE>
CCc1nc(N)nc(N)c1OCCCOc1ccccc1CCC(=O)O

>  <RESULT>
2.30

$$$$
>  <COMPOUND_STRUCTURE>
CCc1nc(N)nc(N)c1Cc1ccc(-c2ccc(C(=O)OC)cc2)cc1.Cl

>  <RESULT>
2.12

$$$$
>  <COMPOUND_STRUCTURE>
CCc1nc(N)nc(N)c1Cc1ccc(-c2ccc(C(=O)O)cc2)cc1.Cl

>  <RESULT>
0.94

$$$$
>  <COMPOUND_STRUCTURE>
CCc1nc(N)nc(N)c1Cc1cccc(-c2ccc(C(=O)O)cc2)c1.Cl.Cl

>  <RESULT>
1.28

$$$$
